Hey, just so you know, these numbers are from the OligoGym collection.

target: UBE2V1; assay: reporter assay of Huesken 2005; details: siRNA
Oligonucleotides are written 5' to 3', each unit as a sugar letter and its base; * is a phosphorothioate linkage, no mark a phosphodiester; rarer units and linkages stand in square brackets, end groups in braces. Plain capitals give the bases only. d = 2'-deoxy (DNA); r = 2'-OH (RNA)
I'd appreciate it if you could label each record using normalised inhibition (eCFP-eYFP dual reporter) and these ranges: small value: < 70%; mid value: ≥ 70% and < 90%; large value: ≥ 90%

1) sense rArArGrArGrCrCrArUrArUrCrArGrUrGrCrUrAdTdT / antisense rUrArGrCrArCrUrGrArUrArUrGrGrCrUrCrUrUdGdG: mid value

Categorize the following entry: sense rCrCrUrCrArGrCrCrGrCrCrCrGrArArGrGrArCdTdT / antisense rGrUrCrCrUrUrCrGrGrGrCrGrGrCrUrGrArGrGdGdA small value

Continue with sense rUrCrGrCrArArUrUrUrCrCrGrArCrUrGrUrUrGdTdT / antisense rCrArArCrArGrUrCrGrGrArArArUrUrGrCrGrAdGdG mid value

Continue with sense rArGrGrArGrArUrGrGrCrArCrArGrUrUrArGrCdTdT / antisense rGrCrUrArArCrUrGrUrGrCrCrArUrCrUrCrCrUdAdC small value

Continue with sense rArGrArArGrGrCrCrArGrArArArGrGrArGrUrAdTdT / antisense rUrArCrUrCrCrUrUrUrCrUrGrGrCrCrUrUrCrUdTdC mid value

Continue with sense rCrArArUrUrUrCrCrGrArCrUrGrUrUrGrGrArAdTdT / antisense rUrUrCrCrArArCrArGrUrCrGrGrArArArUrUrGdCdG large value

Continue with sense rArCrCrUrArGrArArArArUrUrUrCrArCrUrGrCdTdT / antisense rGrCrArGrUrGrArArArUrUrUrUrCrUrArGrGrUdTdC small value

Continue with sense rArUrUrUrCrArCrUrGrCrArArArGrGrArGrUrAdTdT / antisense rUrArCrUrCrCrUrUrUrGrCrArGrUrGrArArArUdTdT large value

Continue with sense rArArUrGrGrArGrUrGrGrUrGrGrArCrCrCrArAdTdT / antisense rUrUrGrGrGrUrCrCrArCrCrArCrUrCrCrArUrUdAdG mid value

Continue with sense rUrArUrArGrCrArUrCrArArArGrUrUrGrUrCrCdTdT / antisense rGrGrArCrArArCrUrUrUrGrArUrGrCrUrArUrAdTdG small value
